Please respond with reported GI50 for every item in the list.
# Test system: MDA-MB-231
# Test method notes: NCI tumour cell line growth inhibition, 48 h
Calls of active or inactive are those of the source. Cut-off read from the data, not from the text of the source: active = GI50 up to about 1.1 µM and inactive = higher.

> print(dat)
                                   molecule               result
1   O=c1oc2ccccc2cc1-c1ccc([N+](=O)[O-])cc1  > 100 µM (inactive)
2               COc1cc(OC)c(NC2=NCCO2)cc1Cl   26.1 µM (inactive)
3  CC1(C)OC[C@@H]([C@@]2(COC(c3ccccc3)(c3ccccc3)c3ccccc3)CC=CC(=O)O2)O1   41.7 µM (inactive)
4  O=C(Oc1ccc(OC(Oc2ccccc2)c2ccccc2)cc1)c1ccccc1 (stereo unspecified)     28 µM (inactive)
5  COc1ccc(-c2cc(-c3ccc(O)cc3O)c(C#N)c(=O)[nH]2)cc1   17.3 µM (inactive)

Okay, next one:
Query :: Fill blank: measured GI50 of the molecule "COc1cc(OC)c(C/C=C/c2ccccc2)cc1O" is ____.
Result :: 17.9 µM (inactive)

====

# System: 786-0
# Test method notes: NCI tumour cell line growth inhibition, 48 h
Calls of active or inactive are those of the source. Cut-off read from the data, not from the text of the source: active = GI50 up to about 1.1 µM and inactive = higher.
Pick from True for active, False for inactive when you respond.

> print(dat)
                                   compound  label
1  CC1CCN(CCC(=O)CC(c2ccccc2)c2c(O)c3ccccc3oc2=O)CC1 (stereo not given)  False

Query :: Hey, what did the test say about "Cc1cn([C@H]2C[C@](C)(CO)N(C)O2)c(=O)[nH]c1=O" ?
Result :: False

Query :: Name the outcome recorded for CCOC(=O)Oc1c(OC)cc(C(=O)NC2CCc3cc(OC)c(OC)c(OC)c3-c3ccc(SC)c(=O)cc32)cc1OC (stereo not given) in the assay.
Result :: True

Query :: What did this assay record as the result for CC1(C)[C@H]2CC[C@@]13C(=O)N1C(=O)O[C@@H]([C@H]1Cl)C(Cl)(COCc1ccccc1)C(=O)OCCO[C@H]3C2 (stereo not given in full) ?
Result :: False

Query :: For "CCSc1cc(C(=O)OC)c2n(c1=O)CCCC2" , what call appears in the results of this test?
Result :: False

====

# Test system: HOP-62
# Test method notes: NCI tumour cell line growth inhibition, 48 h
Calls of active or inactive are those of the source. Rule as the data show it: active = GI50 up to about 1.1 µM and inactive = higher.
Please state which outcome applies, choosing from T = active, F = inactive

> print(dat)
                                   molecule  label
1  CC(C)(C)OC(=O)NCC(=O)NC1CC=CCC1NC(=O)CNC(=O)OC(C)(C)C (stereo unspecified)      F

Query :: Fill in: this test's call for C/C(=N/O)C1CC=C(S(=O)(=O)c2ccccc2)C1 (stereo unspecified) is ___
Result :: F

Query :: How did this test come out for O=C1NC2C(CCO)CC=C[C@H]2c2cc3c(cc21)OCO3 (stereo partly specified) ?
Result :: F

Query :: Status in this test for "CN(CCCCN)c1ccc2c(=O)[nH][nH]c(=O)c2c1" ?
Result :: F

Query :: Just curious, what result did "CC1(C)COC(c2ccc(C(=O)c3ccc(Cl)cc3)cc2)=N1" get here?
Result :: F

Query :: Recorded call for "C1=Nc2ccccc2Cn2nncc21" ?
Result :: F

Query :: Which outcome was entered for the molecule NC1=NCCC1(c1ccccc1)c1ccccn1 (stereo unspecified) in this test?
Result :: F

Query :: # fetch the recorded call for CCOP(=O)(OCC)C(Nc1ccc(Br)cc1)c1cccc([N+](=O)[O-])c1 (stereo unspecified) here
Result :: F

Query :: Hello, I am checking results. What call was entered for "Cn1c2ccccc2c(=NNc2ccc(S(N)(=O)=O)cc2)c2ccccc21" ?
Result :: F

Query :: What did this assay record as the result for "Cc1ccc(S(=O)(=O)NNC(=O)Nc2ccc([N+](=O)[O-])cc2)cc1" ?
Result :: F

Query :: Status in this test for CCOC(=O)Oc1c(OC)cc(C(=O)NC2CCc3cc(OC)c(OC)c(OC)c3-c3ccc(SC)c(=O)cc32)cc1OC (stereo unspecified) ?
Result :: T

Where do the numbers come from? From ChEMBL document CHEMBL1201862.
